Target: CD63 on cells (human) (UniProt P08962)
Sequence (P08962 2-238): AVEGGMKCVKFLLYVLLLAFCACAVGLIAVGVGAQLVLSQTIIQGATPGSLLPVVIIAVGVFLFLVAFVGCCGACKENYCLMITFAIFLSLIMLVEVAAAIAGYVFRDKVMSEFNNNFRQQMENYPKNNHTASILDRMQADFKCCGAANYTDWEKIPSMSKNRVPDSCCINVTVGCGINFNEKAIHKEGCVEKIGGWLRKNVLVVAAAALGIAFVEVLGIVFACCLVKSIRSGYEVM
Experiment: cell-based or functional assay
measuredQuantity: IC50 of cytotoxicity, SK-OV-3 cells (CellTiter-GLO, 4 days)

Need IC50 of cytotoxicity, SK-OV-3 cells (CellTiter-GLO, 4 days), item bsHER2xCD63-Duo3 with CD63 variant Y79H (bispecific antibody, part only; not given: HER2 arm (IgG1-153) VH and VL, V domains shown, part only) VH: EVQLQQSGPELVKPGASVKMSCKASGYTFTSYVMHWVRQTPGQGLEWIGYITPYNDGTKHNEKFKGKATLTSDKSSSTAYMELSSLTSEDSAVYYCVGGDNYYYAMDYWGQGTSVTVSAA VL: NIMVTQSPSSLAVSAGEKVTMSCKSSQSVLYSSNQKNYLAWYQQKPGQSPKLLIYWASTRVSGVPDRFTGSGSGTDFTLTISRVQAEDLAVYYCHQYFSSFTFGSGTKLEIKRT
0.021 µg/mL
